Source of measurements: the supplement of paper PMC4862054

System: HCC1599
Experiment: normalised response (% of control), CellTiter-Glo; higher = more viable cells (100 = DMSO, 0 = benzethonium chloride kill control)
Details: incubation time: 72 h
Label rule met when normalised response is at or above 90%; otherwise label rule not met.

# example entries with known answers
>  <MOLECULE>
CCc1c2c(nc3ccc(OC(=O)N4CCC(N5CCCCC5)CC4)cc13)-c1cc3c(c(=O)n1C2)COC(=O)[C@]3(O)CC [Irinotecan] (100 nM)

>  <ASSIGNED CLASS>
rule met

$$$$
>  <MOLECULE>
CCOC(=O)CCNc1cc(N2CCc3ccccc3CC2)nc(-c2ccccn2)n1 [GSK-J4] (1000 nM)

>  <ASSIGNED CLASS>
rule met

$$$$
>  <MOLECULE>
Cc1[nH]c2ccccc2c1CCNCc1ccc(/C=C/C(=O)NO)cc1 [Panobinostat] (10 nM)

>  <ASSIGNED CLASS>
rule met

$$$$
>  <MOLECULE>
NC(=O)c1ccc(I)c([N+](=O)[O-])c1 [Iniparib] (100 nM)

>  <ASSIGNED CLASS>
rule met

$$$$
>  <MOLECULE>
COc1cc2/c(=N/c3ccc(Br)cc3F)nc[nH]c2cc1OCC1CCN(C)CC1 [Vandetanib] (10 nM)

>  <ASSIGNED CLASS>
rule not met

$$$$
>  <MOLECULE>
COCC1(CO)C(=O)C2CCN1CC2 (stereo not drawn) [Prima-1 Met] (100 nM)

>  <ASSIGNED CLASS>
rule met

$$$$

Confirm if normalised response reported for the molecule O=C(Nc1cccnc1)N1CCC(Cc2cccc(Oc3ccc(C(F)(F)F)cn3)c2)CC1 [PF-3845] (100 nM) is 90% or above.
rule not met

###

Test system: HCC1143
Assay: drug sensitivity score (DSS), CellTiter-Glo (DSS (AUC-based score)); higher = stronger drug effect (viability inhibition or cytotoxicity); extreme values may be limits of the assay
Conditions: incubation time: 72 h
ENDPOINT: drug sensitivity score
Answer with a number only.

>  <MOLECULE SMILES>
Cc1[nH]c2ccccc2c1CCNCc1ccc(/C=C/C(=O)NO)cc1

>  <TARGET SYSTEM>
HCC1143

>  <drug sensitivity score>
15.1

$$$$

Would you mind telling me what drug sensitivity score value was observed for CCn1c(-c2nonc2N)nc2cnc(Oc3cccc(NC(=O)c4ccc(OCCN5CCOCC5)cc4)c3)cc21 ?
0

Would you mind telling me what drug sensitivity score value was observed for O=C(Nc1cccnc1)N1CCC(Cc2cccc(Oc3ccc(C(F)(F)F)cn3)c2)CC1 ?
0

Would you mind telling me what drug sensitivity score value was observed for COc1cc(OC2CCN(C)CC2)ccc1Nc1ncc2c(n1)n(C1CCCC1)c(=O)n2C ?
0

Would you mind telling me what drug sensitivity score value was observed for CO[C@H]1C[C@@H]2CC[C@@H](C)[C@@](O)(O2)C(=O)C(=O)N2CCCC[C@H]2C(=O)O[C@H]([C@H](C)C[C@@H]2CC[C@@H](OP(C)(C)=O)[C@H](OC)C2)CC(=O)[C@H](C)/C=C(\C)[C@@H](O)[C@@H](OC)C(=O)[C@H](C)C[C@H](C)/C=C/C=C/C=C/1C ?
8.23

###

Tested on: BT-549
Test: normalised response (% of control), CellTiter-Glo; higher = more viable cells (100 = DMSO, 0 = benzethonium chloride kill control)
Conditions: incubation time: 72 h
ENDPOINT: normalised response (%)
Write the answer as a number in %, unit excluded.

>  <MOLECULE>
CNC(=O)c1cc(Oc2ccc(NC(=O)Nc3ccc(Cl)c(C(F)(F)F)c3)c(F)c2)ccn1 [Regorafenib] (1000 nM)

>  <TARGET SYSTEM>
BT-549

>  <OUTPUT UNIT>
%

>  <REPORTED VALUE>
105

$$$$

Checklist item: normalised response tested on BT-549, entry CN(C)c1nc(N(C)C)nc(N(C)C)n1 [Altretamine] (1000 nM) , value?
103

Checklist item: normalised response tested on BT-549, entry S=P(N1CC1)(N1CC1)N1CC1 [Thio-TEPA] (5000 nM) , value?
91.7

Checklist item: normalised response tested on BT-549, entry S=P(N1CC1)(N1CC1)N1CC1 [Thio-TEPA] (5 nM) , value?
94.9

Checklist item: normalised response tested on BT-549, entry CN(C)c1nc(N(C)C)nc(N(C)C)n1 [Altretamine] (10 nM) , value?
100
